As shown below, each of these compounds has a reported Adverse reaction: Euphoria value.
- Test system: Sprague-Dawley rats
- Assay Remarks: Pharmacological effect and adverse reactions under the equivalent dose (2ED50), Group C compounds
- Assay type: in vivo
- Condition Info: equivalent dose (2ED50), number of rats of n = 8
Give the value as a plain number.

Example compounds with recorded Adverse reaction: Euphoria:
C[C@H](c1ccccc1)n1cnc(F)c1C(=O)COCC1CCC1	4
CCOCC(=O)c1cncn1[C@H](C)c1ccccc1	1
C#CCOCC(=O)c1cc(F)nn1[C@H](C)c1ccccc1	0
CCC(CC)OCC(=O)c1c(F)ncn1[C@H](C)c1ccccc1	0

Here's the next entry for you.
// Adverse reaction: Euphoria (Sprague-Dawley rats) for C#CCOCC(=O)c1c(F)ncn1[C@H](C)c1ccccc1 = 0

###

- Tested on: SD rats
- Condition Info: continuous infusion 2 x MIR 1 hour; rats affected/rats
- Procedure: Experimental Methods: Adult male SD rats with body weight ranging from 250 g to 350 g were selected for continuous infusion test. Evaluation indexes: the time from the beginning of continuous infusion to the […] of sedation in rats; the time from the cessation of infusion to the restoration of the forepaw turning reflex after 1 hour of continuous infusion; the time from the cessation of infusion to the complete restoration of rats after 1 hour of continuous infusion.
Endpoint Name: Types and incidence of adverse reactions: Tremor

// worked examples, Types and incidence of adverse reactions: Tremor included
C[C@H](c1ccccc1)n1cncc1C(=O)COCCC1CCC1	2/6
CCOCC(=O)c1ccnn1[C@H](C)c1ccccc1	3/6
C[C@H](c1ccccc1)n1cnc(F)c1C(=O)COCCC1CCC1	4/6

Query molecule follows.
Quick note, Types and incidence of adverse reactions: Tremor for CC#CCOCC(=O)c1cncn1[C@H](C)c1ccccc1 landed at 5/6

###

Entries and their Adverse reaction: Four limbs rigidity
- System: Sprague-Dawley rats
- Assay Remarks: Pharmacological effect and adverse reactions under the equivalent dose (2ED50), Group D compounds
- Type: in vivo
- Condition Info: equivalent dose (2 × ED50), number of rats of n = 8
Give only the figure.

Field Adverse reaction: Four limbs rigidity (system: Sprague-Dawley rats) for entry COC(OC)(OCC(C)(C)C)C(=O)c1ccnn1[C@H](C)c1ccccc1 = 1

For C=CCOC(OC)(OC)C(=O)c1ccnn1[C@H](C)c1ccccc1 on Sprague-Dawley rats, measured Adverse reaction: Four limbs rigidity was 1

Record for CCSC(OC)(OC)C(=O)c1ccnn1[C@H](C)c1ccccc1 [Compound D2] under target or system Sprague-Dawley rats: Adverse reaction: Four limbs rigidity reported as 0

###

- System: Sprague-Dawley rats
- Assay Remarks: animal or person
- Condition Info: rats
Endpoint Name: Minimal lethal dose

C=C=CC1(OC(=O)c2c(F)c(F)nn2[C@H](C)c2ccccc2)COC1	>1 mg/kg

Form field Minimal lethal dose, entry C=C=CC1(OC(=O)c2cc(F)nn2[C@H](C)c2ccccc2)COC1 : >11 mg/kg

// recorded Minimal lethal dose for CC(=O)C1=C(OC(=O)c2ccnn2[C@H](C)c2ccccc2)CCC1 : >8 mg/kg

Lab note: CC#CC(C)(C)OC(=O)c1c(F)cnn1[C@H](C)c1ccccc1 gave Minimal lethal dose of >12 mg/kg

The reported value for CC(=O)C1(OC(=O)c2ccnn2[C@H](C)c2ccccc2)COC1 in terms of Minimal lethal dose is >9 mg/kg

Minimal lethal dose reported for this compound C=C=CC1(OC(=O)c2c(F)cnn2[C@H](C)c2ccccc2)COC1 : >2 mg/kg
